tested on: MS2 coat protein; assay: apparent KD of MS2 coat protein; higher = weaker reporter binding; details: Eterna round: R107; input ligand: theophylline 2 mM
Reported apparent KD of MS2 coat protein values follow for various sequences
Value expressed in nM; do not type the unit.

In the examples that follow, each entry is paired with its recorded apparent KD of MS2 coat protein.
UGUCGGCGUAAGUUGGCAUGUCUUGCUGGUCGAGGACCGGUACGGCCGCCACUCGAUCCUUCGCACAUGAGGAUCACCCAUGUUG [SS Tryp A #25] : 20.4
UCGCUCUGGGUGGGAUCCGGAGAUGUGGAAGGAGCGCUGGUAACAGCAGGUAGGUCGCCAACGGACAUGAGGAUCACCCAUGUAC [Same State - Arginine A (Freestyle 17)] : 44.2

For "AAGGAAAAGGCGGCCGCCACUGGAAAGGCGAAAGCCAAGAAAACAUGAGGAUCACCCAUGUCAUGUAGGACCGGGCCAAAAGGAA" the sequence record lists apparent KD of MS2 coat protein as 14.7

For CGUCGAAACUGAAGGAGCGAGAUAACAACAUUGGGUCUCAACAUGAGGAUCACCCAUGUAUCUCAGGUAGGUCGCGGUGUCACCG [Exclusion Arginine B GF19] the sequence record lists apparent KD of MS2 coat protein as 429

For AACGUAUACAGAAGGAGCGUGAUUUAUAAUUCUUUAAAAUAUACAUGAGGAUCACCCAUGUCACAGGUAGGUCGCUGUAUUCGUA [JR_ExcArginiB_Sub024] the sequence record lists apparent KD of MS2 coat protein as 35.2

For AUACAUGAGGAUCACCCAUGUCAUUCAGAAGGAGCGUCAUUUUAGACAGGUAGGUCGCUGAUAUUAUUCUUAUACUUUAUGUUUA [JR_ExcArginiA_Sub022] the sequence record lists apparent KD of MS2 coat protein as 19.5
